target: Rho (transcription termination factor) wt (Escherichia coli, UniProt P0AG30 1-419)
run.description: fluorescence anisotropy
readout.label: pKd
Kindly note that pKd refers to -log10 of the concentration in mol/L and answer with the value alone.

Input line: Entry CCCCCCCCCCCCCCC (ssDNA) [dC15] needs its pKd filled in; supply it.
Output line: 6.00
